B1: CLCN6 (parent)
chain: ILRSQLVTLLVRGVCYSESQSSAS

Variants of: B1
assay.text: protein stability index of a GFP-peptide fusion (GPS, HEK-293T) (PSI 1-6); higher = more stable;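 further: lentivirally expressed fusions sorted by FACS into six bins by GFP to DsRed ratio, PSI derived from sequencing read proportions per bin multiplied by bin number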
condition.parameters: c terminus: a fixed tail appended
Threshold check on protein stability index: at or above 2 gives criterion met, strictly below gives criterion not met.

[
  {
    "variant.string": "L10Y",
    "qualitative.label": "criterion met"
  },
  {
    "variant.string": "L10T",
    "qualitative.label": "criterion met"
  },
  {
    "variant.string": "S4K",
    "qualitative.label": "criterion met"
  },
  {
    "variant.string": "T8R",
    "qualitative.label": "criterion met"
  },
  {
    "variant.string": "S17D",
    "qualitative.label": "criterion met"
  },
  {
    "variant.string": "C15F",
    "qualitative.label": "criterion met"
  },
  {
    "variant.string": "V7M",
    "qualitative.label": "criterion met"
  },
  {
    "variant.string": "T8P",
    "qualitative.label": "criterion met"
  },
  {
    "variant.string": "L10Q",
    "qualitative.label": "criterion not met"
  },
  {
    "variant.string": "L10M",
    "qualitative.label": "criterion met"
  }
]

Please look at the following variant next.
Exam item: Record "S4W" ; criterion: protein stability index no lower than 2. Met?
Marked response: criterion met
